Entries and their Ki
Molecular target: Carbonic anhydrase 9 (Homo sapiens)
Assay: Inhibition of human CA9 by stopped-flow carbon dioxide hydration assay
property.measured: Ki

query_smiles=C/C(=N\Nc1nc(-c2ccc(Cl)cc2)cs1)c1nnn(-c2ccc(S(N)(=O)=O)cc2)c1C property_measured=Ki result="7.89 µM"
query_smiles=C/C(=N\Nc1nc(-c2ccc(Cl)cc2)cs1)c1nnn(-c2ccc(C(=O)O)cc2)c1C property_measured=Ki result="> 100 µM"
query_smiles=Cc1c(-c2nn(-c3ccccc3)cc2/C=N/O)nnn1-c1ccc(C(=O)O)cc1 property_measured=Ki result="2.25 µM"
query_smiles=Cc1c(-c2nn(-c3ccccc3)cc2/C=N/O)nnn1-c1ccc(F)cc1 property_measured=Ki result="> 100 µM"
query_smiles=C/C(=N\Nc1nc(-c2ccc(Cl)cc2)cs1)c1nnn(-c2ccc(S(=O)(=O)Nc3nccs3)cc2)c1C property_measured=Ki result="> 100 µM"
query_smiles=C/C(=N\NC(N)=S)c1nnn(-c2ccc(S(=O)(=O)Nc3nccs3)cc2)c1C property_measured=Ki result="> 100 µM"
query_smiles=Cc1c(-c2nn(-c3ccccc3)cc2/C=N/O)nnn1-c1ccc(S(N)(=O)=O)cc1 property_measured=Ki result="> 100 µM"
query_smiles=Cc1c(-c2nn(-c3ccccc3)cc2/C=N/O)nnn1-c1ccc(Cl)cc1 property_measured=Ki result="> 100 µM"

* * *

Target: Prostaglandin G/H synthase 1 (Ovis aries)
Sequence (P05979 whole entry): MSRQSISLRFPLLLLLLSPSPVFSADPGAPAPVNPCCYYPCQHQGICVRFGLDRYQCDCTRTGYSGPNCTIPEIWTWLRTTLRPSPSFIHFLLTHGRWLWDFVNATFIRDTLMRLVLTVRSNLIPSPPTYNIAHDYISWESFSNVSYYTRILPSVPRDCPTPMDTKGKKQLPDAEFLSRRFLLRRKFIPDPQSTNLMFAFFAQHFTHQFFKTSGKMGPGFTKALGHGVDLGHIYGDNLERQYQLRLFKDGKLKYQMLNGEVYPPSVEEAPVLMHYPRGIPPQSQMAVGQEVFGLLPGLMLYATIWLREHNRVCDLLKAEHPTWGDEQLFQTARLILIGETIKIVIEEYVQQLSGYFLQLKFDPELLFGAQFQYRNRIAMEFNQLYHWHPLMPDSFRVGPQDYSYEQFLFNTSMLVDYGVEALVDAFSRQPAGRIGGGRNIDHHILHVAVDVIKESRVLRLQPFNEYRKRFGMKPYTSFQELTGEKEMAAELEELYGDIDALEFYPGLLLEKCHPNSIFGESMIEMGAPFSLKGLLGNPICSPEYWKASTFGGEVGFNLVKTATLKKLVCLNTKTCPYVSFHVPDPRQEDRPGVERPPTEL
property.measured: IC50

query_smiles=Cc1c(-c2nn(-c3ccccc3)cc2/C=N/O)nnn1-c1ccc(C(=O)O)cc1 result="12.4 µM"
query_smiles=CC(=O)c1nnn(-c2ccc(C(=O)O)cc2)c1C result="6.4 µM"
query_smiles=C/C(=N\Nc1nc(-c2ccc(Cl)cc2)cs1)c1nnn(-c2ccc(Cl)cc2)c1C result="11.9 µM"
query_smiles=C/C(=N\NC(N)=S)c1nnn(-c2ccc(F)cc2)c1C result="9.6 µM"
query_smiles=C/C(=N\NC(N)=S)c1nnn(-c2ccc(S(N)(=O)=O)cc2)c1C result="13 µM"
query_smiles=CC(=O)c1nnn(-c2ccc(Cl)cc2)c1C result="7.9 µM"
